Molecular target: T1, O5-bS
T1 chain: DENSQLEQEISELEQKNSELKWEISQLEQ
Experiment: two-hybrid library CCNG1;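 note: natural log of median RNA to DNA barcode read ratio; higher means stronger binding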
Use -2 as the dividing line for interaction score, with the line itself on the condition met side and lower values as condition not met.

## Input Is interaction score at least -2? Consider DKISQLKQKNSELKQEISELEWKNSQLKQ [O16-bS]
## Output condition not met

## Input Please check the record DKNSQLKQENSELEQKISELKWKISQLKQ [O10-bS] and state if its interaction score is at or above -2.
## Output condition met

## Input Is reported interaction score greater than or equal to -2 here: DKNSQLKQKISELKQKNSELKWEISQLEQ [O13-bS]
## Output condition not met

## Input Decide: is the reported value of interaction score for DEISQLEQKISELKQKNSELKWKNSQLKQ [O12-bS] equal to or greater than -2?
## Output condition met

## Input Confirm if interaction score reported for the binder DKISQLKQEISELEQENSELEWENSQLEQ [O11-bS] is -2 or above.
## Output condition not met

## Input Could you verify whether the entry DENSQLEQKNSELKQKISELKWKISQLKQ [O2-bS] shows interaction score of no less than -2?
## Output condition not met
